- Test system: HT29 colon
- test_protocol: NCI-60 one-dose screen, 48 h
- test_conditions: 10 µM unless noted
Compounds without any hit were thinned out: in the full panel of roughly 83,000, 20% have a hit. The source made the active and inactive calls. The calls were made as follows: active = growth percent below 10; inactive = the rest.
Outcomes: active, inactive

[
  {
    "compound": "Nc1nc(Nc2ccccc2SSc2ccccc2Nc2nc(N)nc(-c3cccc(Br)c3)n2)nc(-c2cccc(Br)c2)n1",
    "answer_label": "inactive"
  },
  {
    "compound": "C=C1CC[C@@H]2[C@](C)(CO)[C@H](O)CC[C@@]2(C)[C@@H]1C/C(O)=C1\\CCOC1=O",
    "answer_label": "inactive"
  },
  {
    "compound": "COc1ccc2[nH]cc(/C=N/Nc3nc4ccccc4s3)c2c1",
    "answer_label": "inactive"
  },
  {
    "compound": "O=C(NNc1nc2cc(F)ccc2n2cccc12)c1ccncn1",
    "answer_label": "inactive"
  },
  {
    "compound": "COc1ccc(C(=O)Nc2ncc(Cc3ccccc3Cl)s2)cc1",
    "answer_label": "active"
  },
  {
    "compound": "Cc1ccc(NC(=O)CNc2cc(C(N)=O)cc(F)c2C)c(Cl)c1",
    "answer_label": "inactive"
  },
  {
    "compound": "NC(N)=Nc1ccc(Oc2cccc(NC(N)=Nc3ccc(Br)c(C(F)(F)F)c3)c2)cc1",
    "answer_label": "inactive"
  },
  {
    "compound": "CS(=O)(=O)c1ccc(-c2nn(-c3ccccc3)cc2/C=N/NC(=O)c2nc(N)n[nH]2)cc1",
    "answer_label": "inactive"
  },
  {
    "compound": "CC(=O)N(C)C1CCc2c(sc(NC(=O)c3ccc(C(C)(C)C)cc3)c2C(N)=O)C1 (configuration not stated)",
    "answer_label": "inactive"
  },
  {
    "compound": "COc1cc(OC)c(S(N)(=O)=O)cc1C(C)=O",
    "answer_label": "inactive"
  },
  {
    "compound": "O=S(=O)(NCCNc1nccc(-n2cnc3ccccc32)n1)c1ccc(C(F)(F)F)cc1",
    "answer_label": "inactive"
  },
  {
    "compound": "CNC1CCc2c(sc(NC(=O)c3ccc(C(C)(C)C)cc3)c2C(N)=O)C1 (configuration not stated)",
    "answer_label": "active"
  },
  {
    "compound": "C#Cc1nc(/C=C/C(=O)c2nccn2C)cs1",
    "answer_label": "active"
  },
  {
    "compound": "Oc1cccc2ccc(-c3nnc(SCc4ccc(O)c5ncccc45)n3-c3ccccc3)nc12",
    "answer_label": "inactive"
  },
  {
    "compound": "COc1ccc(/C=C(/C)c2ccc3ccc(OC)cc3[o+]2)c(O)c1",
    "answer_label": "inactive"
  },
  {
    "compound": "COC(=O)C[Se]C(=O)Cc1c(C)n(C(=O)c2ccc(Cl)cc2)c2ccc(OC)cc12",
    "answer_label": "active"
  },
  {
    "compound": "COc1cccc(O)c1/C=C(/C)c1ccc2c(OC)cccc2[o+]1",
    "answer_label": "inactive"
  },
  {
    "compound": "N#C/C(=C\\c1ccc(-c2ccc(Cl)cc2Cl)o1)c1ccc(F)cc1",
    "answer_label": "inactive"
  },
  {
    "compound": "Nc1nc(-c2cccc([N+](=O)[O-])c2)c(N=Nc2cccc([N+](=O)[O-])c2)s1",
    "answer_label": "inactive"
  },
  {
    "compound": "COc1cc(Nc2c(C#N)cnn3cc(-c4cnn(CC(C)(C)O)c4)cc23)ccc1Cl",
    "answer_label": "inactive"
  },
  {
    "compound": "O=C(CCn1c[n+](CC(=O)c2ccc(F)cc2)c2ccccc21)Nc1cccc2cccnc12",
    "answer_label": "inactive"
  },
  {
    "compound": "FC(F)(F)c1cc(Nc2cccc(Oc3ccc(NC4=NCCN4)nc3)c2)ccc1Cl",
    "answer_label": "active"
  },
  {
    "compound": "CCc1cccc(NC(=O)CNc2cc(S(=O)(=O)N(C)C)cc(C)c2C)c1",
    "answer_label": "inactive"
  },
  {
    "compound": "Cc1ccc(-n2c(/C=C3\\C(=O)Nc4ccccc43)ccc2CO)cc1",
    "answer_label": "inactive"
  },
  {
    "compound": "C=C=COc1cccc(/C(N)=N/C(N)=N/c2nc3ccccc3s2)c1",
    "answer_label": "inactive"
  },
  {
    "compound": "COc1cc2nc(Cl)nc(Nc3cccc(C4=Nc5c(N)nc(N)nc5NC(c5ccccc5)C4)c3)c2cc1OC (configuration not stated)",
    "answer_label": "inactive"
  },
  {
    "compound": "O=C(NNc1nc2cc(F)cc(F)c2n2cccc12)c1cnccn1",
    "answer_label": "inactive"
  },
  {
    "compound": "O=C(CSc1nc2ccccc2c(=O)n1-c1ccc(Cl)cc1)N/N=C/c1ccc(N2CCCCC2)cc1",
    "answer_label": "inactive"
  },
  {
    "compound": "CNC(=O)c1cc(N2CCc3cc(NC(=O)Nc4ccc(Cl)c(C(F)(F)F)c4)ccc32)ccn1",
    "answer_label": "inactive"
  },
  {
    "compound": "CN1CCN(Cc2ccc(NC(=O)c3cncc(C#Cc4cnc5ccc(NCCCO)nn45)c3)cc2C(F)(F)F)CC1",
    "answer_label": "active"
  },
  {
    "compound": "O=C(CCC(=O)N1CCOCC1)OCCCCCCSc1ccc([N+](=O)[O-])c2nonc12",
    "answer_label": "active"
  },
  {
    "compound": "COCCNc1ccc2ncc(C#Cc3cncc(C(=O)Nc4ccc(CN5CCN(C)CC5)c(C(F)(F)F)c4)c3)n2n1",
    "answer_label": "active"
  }
]

Data origin, for the record: PubChem BioAssay (NCI)
